test: Cytotoxicity against human Huh7.5 cells assessed as reduction in cell viability after 72 hrs by MTT method; type: cell-based
Property Measured: CC50 at 72 h (µM)
Report the value in µM with no unit label.

Request: Look at this compound and give its reported CC50 at 72 h. `CC(=O)OC[C@H]1O[C@@H](Sc2ccc(NC(=O)[C@H]3O[C@@H](n4ccc(=O)[nH]c4=O)[C@@H]4OC(C)(C)O[C@@H]43)cn2)[C@H](OC(C)=O)[C@@H](OC(C)=O)[C@@H]1OC(C)=O`
Response: 271

Request: Look at this compound and give its reported CC50 at 72 h. `CC(=O)OC[C@H]1O[C@@H](Sc2ccc(NC(=O)CCC(=O)OC[C@H]3O[C@@H](n4ccc(=O)[nH]c4=O)[C@@H]4OC(C)(C)O[C@@H]43)cn2)[C@H](OC(C)=O)[C@@H](OC(C)=O)[C@H]1OC(C)=O`
Response: 340

Request: Look at this compound and give its reported CC50 at 72 h. `O=C(Nc1ccc(S[C@@H]2O[C@H](CO)[C@@H](O)[C@H](O)[C@H]2O)nc1)[C@H]1O[C@@H](n2ccc(=O)[nH]c2=O)[C@H](O)[C@@H]1O`
Response: 420

Request: Look at this compound and give its reported CC50 at 72 h. `CC(C)OC(=O)[C@H](C)N[P@](=O)(OC[C@H]1O[C@@H](n2ccc(=O)[nH]c2=O)[C@](C)(F)[C@@H]1O)Oc1ccccc1`
Response: 31
